- Test system: LNCaP tumor-transplanted mouse
- assay-comment: Internal radioactivity distribution using LNCaP tumor-transplanted mouse
- Format: in vivo
- condition-label: 48 h after administration
property-measured: Stomach (% ID)
Note: state the figure and append the unit.

Recorded Stomach (% ID) for O=C([O-])CN(CCN(CCc1ccc(NC(=O)[C@H](CCCCNC(=O)CCC(=O)NCCCC[C@H](NC(=O)N[C@@H](CCC(=O)O)C(=O)O)C(=O)O)NC(=O)CCCc2ccc(I)cc2)cc1)CCN(CC(=O)[O-])Cc1cccc(C(=O)[O-])n1)Cc1cccc(C(=O)[O-])n1.[111In+3] [[^111In]In-Neunpa-2] , please?
0.06 ± 0.03 % ID

Same question, O=C([O-])CN1CCN(C(CCC(=O)NCCC(=O)N2Cc3ccccc3-c3c(nnn3CCOCCOCCOCCOCCC(=O)NCCCC[C@H](NC(=O)N[C@@H](CCC(=O)O)C(=O)O)C(=O)O)-c3ccccc32)C(=O)[O-])CCN(CC(=O)[O-])CCN(C(CCC(=O)N[C@@H](CCCCNC(=O)CCCc2ccc(I)cc2)C(=O)O)C(=O)[O-])CC1.[111In+3] (stereo partly drawn) [[^111In]In-PtDA] this time
0.29 ± 0.20 % ID

Same question, O=C([O-])CN(Cc1cccc(C(=O)[O-])n1)C[C@H](Cc1ccc(NC(=O)[C@H](CCCCNC(=O)CCC(=O)NCCCC[C@H](NC(=O)N[C@@H](CCC(=O)O)C(=O)O)C(=O)O)NC(=O)CCCc2ccc(I)cc2)cc1)N(CC(=O)[O-])Cc1cccc(C(=O)[O-])n1.[111In+3] [[^111In]In-Octapa-2] this time
0.16 ± 0.14 % ID

###

- System: LNCaP tumor-transplanted mouse
- assay-comment: Internal radioactivity distribution using LNCaP tumor-transplanted mouse
- Format: in vivo
- condition-label: 24 h after administration
property-measured: Liver (% ID/g)
Report the value in % ID/g with no unit label.

Sample answers from the record:
molecule="O=C([O-])CN(Cc1cccc(C(=O)[O-])n1)C[C@H](Cc1ccc(NC(=O)[C@H](CCCCNC(=O)CCC(=O)NCCCC[C@H](NC(=O)N[C@@H](CCC(=O)O)C(=O)O)C(=O)O)NC(=O)CCCc2ccc(I)cc2)cc1)N(CC(=O)[O-])Cc1cccc(C(=O)[O-])n1.[111In+3] [[^111In]In-Octapa-2]" value_measured=0.33
molecule="O=C([O-])CN(Cc1cccc(C(=O)[O-])n1)C[C@H](Cc1ccc(NC(=O)[C@H](CCCCNC(=O)CCC(=O)NCCCC[C@H](NC(=O)N[C@@H](CCC(=O)O)C(=O)O)C(=O)O)NC(=O)COCCOCCOCC(=O)N[C@@H](CCCCNC(=O)CCCc2ccc(I)cc2)C(=O)O)cc1)N(CC(=O)[O-])Cc1cccc(C(=O)[O-])n1.[111In+3] [[^111In]In-Octapa-3]" value_measured=1.73
molecule="O=C([O-])CN(CCN(CCc1ccc(NC(=O)CCCCCNC(=O)CCC(=O)NCCCC[C@H](NC(=O)N[C@@H](CCC(=O)O)C(=O)O)C(=O)O)cc1)CCN(CC(=O)[O-])Cc1cccc(C(=O)[O-])n1)Cc1cccc(C(=O)[O-])n1.[111In+3] [[^111In]In-Neunpa-1, reference compound]" value_measured=0.69
molecule="O=C([O-])CN(CCN(CCc1ccc(NC(=O)[C@H](CCCCNC(=O)CCC(=O)NCCCC[C@H](NC(=O)N[C@@H](CCC(=O)O)C(=O)O)C(=O)O)NC(=O)CCCc2ccc(I)cc2)cc1)CCN(CC(=O)[O-])Cc1cccc(C(=O)[O-])n1)Cc1cccc(C(=O)[O-])n1.[111In+3] [[^111In]In-Neunpa-2]" value_measured=1.00
molecule="O=C(O)CC[C@H](NC(=O)N[C@@H](CCCCNC(=O)[C@H](Cc1ccc2ccccc2c1)NC(=O)[C@H]1CC[C@H](CNC(=O)CCC(C(=O)O)N2CCN(CC(=O)O)CCN(C(CCC(=O)N[C@@H](CCCCNC(=O)CCCc3ccc(I)cc3)C(=O)O)C(=O)O)CCN(CC(=O)O)CC2)CC1)C(=O)O)C(=O)O (some centres unmarked) [[^111In]In-PSMA-NAT-DA1, metal not drawn]" value_measured=2.73
molecule="O=C([O-])CN1CCN(C(CCC(=O)NCCCC[C@H](NC(=O)N[C@@H](CCC(=O)O)C(=O)O)C(=O)O)C(=O)[O-])CCN(CC(=O)[O-])CCN(C(CCC(=O)N[C@@H](CCCCNC(=O)CCCc2ccc(I)cc2)C(=O)O)C(=O)[O-])CC1.[111In+3] (some centres unmarked) [[^111In]In-PSMA-DA1]" value_measured=2.64

Recorded Liver for O=C([O-])CN1CCN(C(CCC(=O)NCCCC[C@H](NC(=O)N[C@@H](CCC(=O)O)C(=O)O)C(=O)O)C(=O)[O-])CCN(CC(=O)[O-])CCN(C(CCC(=O)Nc2ccccc2)C(=O)[O-])CC1.[111In+3] (some centres unmarked) [[^111In]In-PSMA-DB, reference compound] , please?
1.55

Same question, O=C([O-])CN(Cc1cccc(C(=O)[O-])n1)C[C@H](Cc1ccc(NC(=O)CCCCCNC(=O)CCC(=O)NCCCC[C@H](NC(=O)N[C@@H](CCC(=O)O)C(=O)O)C(=O)O)cc1)N(CC(=O)[O-])Cc1cccc(C(=O)[O-])n1.[111In+3] [[^111In]In-Octapa-1, reference compound] this time
0.06
